# assay.system: T1, mouse tissue factor pathway inhibitor (TFPI) (mouse, UniProt O54819 29-289, limits assumed)
# T1 construct: bought; also called mTFPI; murine TFPI
# T1 sequence (looked up): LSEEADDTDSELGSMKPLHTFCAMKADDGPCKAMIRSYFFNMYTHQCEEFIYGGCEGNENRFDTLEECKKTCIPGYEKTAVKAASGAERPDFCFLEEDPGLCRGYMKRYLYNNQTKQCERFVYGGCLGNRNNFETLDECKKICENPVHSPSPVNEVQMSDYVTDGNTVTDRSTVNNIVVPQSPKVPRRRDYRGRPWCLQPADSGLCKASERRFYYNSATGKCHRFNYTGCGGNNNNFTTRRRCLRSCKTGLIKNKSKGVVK
# assay.summary: equilibrium ELISA
Catalogue of variant/wild-type values

Some binders with known variant/wild-type results, for comparison:
binder="4B7 HC_S33G (Fab, V domains shown) VH: QVQLQQSGPGLVKPSQTLSLTCAISGDSVSSNGAAWSWIRQSPGRGLEWLGIIYKRSKWYNDYAVSVKSRITINPDTSKNQFSLQLNSVTPEDTAVYYCARWHSDKHWGFDYWGQGTLVTVSS VL: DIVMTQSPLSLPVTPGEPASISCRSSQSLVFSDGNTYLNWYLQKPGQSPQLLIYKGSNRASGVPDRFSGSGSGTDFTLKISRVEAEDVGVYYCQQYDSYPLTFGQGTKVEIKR" parameter=variant/wild-type value_observed="6.5 ratio"
binder="4B7 HC_N32D (Fab, V domains shown) VH: QVQLQQSGPGLVKPSQTLSLTCAISGDSVSSDSAAWSWIRQSPGRGLEWLGIIYKRSKWYNDYAVSVKSRITINPDTSKNQFSLQLNSVTPEDTAVYYCARWHSDKHWGFDYWGQGTLVTVSS VL: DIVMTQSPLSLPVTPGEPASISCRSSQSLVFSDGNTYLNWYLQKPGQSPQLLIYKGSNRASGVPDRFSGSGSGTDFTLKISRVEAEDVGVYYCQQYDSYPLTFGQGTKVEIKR" parameter=variant/wild-type value_observed="6 ratio"
binder="4B7 LC_N35V LC_G56D (Fab, V domains shown) VH: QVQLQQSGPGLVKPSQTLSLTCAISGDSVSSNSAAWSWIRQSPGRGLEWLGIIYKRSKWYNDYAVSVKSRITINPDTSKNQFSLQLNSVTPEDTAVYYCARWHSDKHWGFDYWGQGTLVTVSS VL: DIVMTQSPLSLPVTPGEPASISCRSSQSLVFSDGVTYLNWYLQKPGQSPQLLIYKDSNRASGVPDRFSGSGSGTDFTLKISRVEAEDVGVYYCQQYDSYPLTFGQGTKVEIKR" parameter=variant/wild-type value_observed="8.2 ratio"
binder="4B7 HC_N61G HC_D62V (Fab, V domains shown) VH: QVQLQQSGPGLVKPSQTLSLTCAISGDSVSSNSAAWSWIRQSPGRGLEWLGIIYKRSKWYGVYAVSVKSRITINPDTSKNQFSLQLNSVTPEDTAVYYCARWHSDKHWGFDYWGQGTLVTVSS VL: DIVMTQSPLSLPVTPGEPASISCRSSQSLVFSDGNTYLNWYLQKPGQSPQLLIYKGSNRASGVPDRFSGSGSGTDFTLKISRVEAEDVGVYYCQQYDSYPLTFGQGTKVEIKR" parameter=variant/wild-type value_observed="31.1 ratio"

Please find the next binder below.
Q: For 4B7 LC_S57Y (Fab, V domains shown) VH: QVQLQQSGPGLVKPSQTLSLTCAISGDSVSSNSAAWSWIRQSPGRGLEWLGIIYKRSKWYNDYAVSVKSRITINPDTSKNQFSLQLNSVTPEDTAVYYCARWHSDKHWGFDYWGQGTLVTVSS VL: DIVMTQSPLSLPVTPGEPASISCRSSQSLVFSDGNTYLNWYLQKPGQSPQLLIYKGYNRASGVPDRFSGSGSGTDFTLKISRVEAEDVGVYYCQQYDSYPLTFGQGTKVEIKR , write its variant/wild-type.
Result: 2.2 ratio

Data provenance is patent USRE47150.
